All values here come from PubChem BioAssay AID1963983.

Provide the recorded viability, T/C for the entries that follow.
Test system: 186277-243-T-J2-PDC multi-cell spheroid viability
Experiment: Anticancer human tumor 186277-243-T-J2-PDC patient-derived colon adenocarcinoma cell line growth inhibition [PI3K]
Details: second compound 0.1 µM; first compound 1 µM; stronger effect = lower value

>>> result("Cn1nccc1Nc1nccc(-c2ccn(C(CO)c3ccc(Cl)c(F)c3)c(=O)c2)n1 (stereo not given) + Cc1nc(NC(=O)N2CCCC2C(N)=O)sc1-c1ccnc(C(C)(C)C(F)(F)F)c1")
"53.8%"

Take each entry in turn and give its viability, T/C.
1. C#Cc1c(F)ccc2cc(O)cc(-c3ncc4c(N5CC6CCC(C5)N6)nc(OCC56CCCN5CC(F)C6)nc4c3F)c12 (stereo not given) + CC(Nc1ccc2c(c1)OCCn1cc(N3C(=O)OCC3C(F)F)nc1-2)C(N)=O
2. CNC(=O)c1ccc(N2C(=S)N(c3ccc(C#N)c(C(F)(F)F)c3)C(=O)C2(C)C)cc1F + CC(Nc1ncnc2nc[nH]c12)c1cc2cccc(Cl)c2c(=O)n1-c1ccccc1
3. CCN1CCN(Cc2ccc(Nc3ncc(F)c(-c4cc(F)c5nc(C)n(C(C)C)c5c4)n3)nc2)CC1 + CC(Nc1ncnc2nc[nH]c12)c1cc2cccc(Cl)c2c(=O)n1-c1ccccc1
4. CNC(=O)c1ccc(N2C(=S)N(c3ccc(C#N)c(C(F)(F)F)c3)C(=O)C2(C)C)cc1F + Cc1nc(NC(=O)N2CCCC2C(N)=O)sc1-c1ccnc(C(C)(C)C(F)(F)F)c1

Ans.
1: 7.52%; 2: 115%; 3: 148%; 4: 100%

* * *

Test system: 186277-243-T-J2-PDC multi-cell spheroid viability
Assay: Anticancer human tumor 186277-243-T-J2-PDC cell line growth inhibition [PI3K]; active = viability on the fitted dose curve at most 10% of control; inactive = the rest;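 note: spheroids exposed to compounds for seven days before viability reading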
Conditions: second compound 0.1 µM; first compound 1 µM
Text: Combinatorial screen of targeted agents with the PI3K inhibitors inavolisib, alpelisib, duvelisib, and copanlisib in multi-cell type tumor spheroids A high-throughput screen of multi-cell type tumor spheroids was designed to identify active combinations of targeted small molecules and PI3K pathway inhibitors. […] Compounds. […] If the clinical Cmax for an agent had not been determined, the highest concentration tested was 10 microM. […]
The reply should be one of these categories: True = active, False = inactive

Look over these answered cases.
>>> answer_label("CC(C)NCC(C(=O)N1CCN(c2ncnc3c2C(C)CC3O)CC1)c1ccc(Cl)cc1 (stereo not given) + COc1c(OCCCN2CCOCC2)ccc2c3n(c(=NC(=O)c4cnc(N)nc4)nc12)CCN3")
"True"
>>> answer_label("CC(C)NCC(C(=O)N1CCN(c2ncnc3c2C(C)CC3O)CC1)c1ccc(Cl)cc1 (stereo not given) + CC(Nc1ncnc2nc[nH]c12)c1cc2cccc(Cl)c2c(=O)n1-c1ccccc1")
"False"
>>> answer_label("CC(C)NCC(C(=O)N1CCN(c2ncnc3c2C(C)CC3O)CC1)c1ccc(Cl)cc1 (stereo not given) + CC(Nc1ccc2c(c1)OCCn1cc(N3C(=O)OCC3C(F)F)nc1-2)C(N)=O")
"False"
>>> answer_label("CNC(=O)c1ccc(N2C(=S)N(c3ccc(C#N)c(C(F)(F)F)c3)C(=O)C2(C)C)cc1F + COc1c(OCCCN2CCOCC2)ccc2c3n(c(=NC(=O)c4cnc(N)nc4)nc12)CCN3")
"False"

With those in mind, consider the next compound.
Qu. Per the assay record, what outcome was assigned to CC1(C)CCC(CN2CCN(c3ccc(C(=O)NS(=O)(=O)c4ccc(NCC5CCOCC5)c([N+](=O)[O-])c4)c(Oc4cnc5[nH]ccc5c4)c3)CC2)=C(c2ccc(Cl)cc2)C1 + CC(Nc1ncnc2nc[nH]c12)c1cc2cccc(Cl)c2c(=O)n1-c1ccccc1 ?
Ans. False

* * *

Test system: 186277-243-T-J2-PDC multi-cell spheroid viability
Test: Anticancer human tumor 186277-243-T-J2-PDC cell line growth inhibition [PI3K];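 note: spheroids exposed to compounds for seven days before viability reading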;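 for viability, T/C: 100% = DMSO vehicle control viability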
Details: second compound 10 µM; first compound 1 µM; stronger effect = lower value
Observed property: viability, T/C (%)
One number for each entry, in %.

In the examples that follow, each entry is paired with its recorded viability, T/C.
>>> readout_number("CC(Cn1ccc(-c2ccc(C#N)c(Cl)c2)n1)NC(=O)c1cc(C(C)O)[nH]n1 (stereo not drawn) + Cc1nc(NC(=O)N2CCCC2C(N)=O)sc1-c1ccnc(C(C)(C)C(F)(F)F)c1")
17.1
>>> readout_number("CC(C)NCC(C(=O)N1CCN(c2ncnc3c2C(C)CC3O)CC1)c1ccc(Cl)cc1 (stereo not drawn) + CC(Nc1ncnc2nc[nH]c12)c1cc2cccc(Cl)c2c(=O)n1-c1ccccc1")
36.3

// next entry
The compound CCN1CCN(Cc2ccc(Nc3ncc(F)c(-c4cc(F)c5nc(C)n(C(C)C)c5c4)n3)nc2)CC1 + Cc1nc(NC(=O)N2CCCC2C(N)=O)sc1-c1ccnc(C(C)(C)C(F)(F)F)c1 showed viability, T/C equal to 12

* * *

Provide the recorded viability, T/C for the entries that follow.
Test system: 186277-243-T-J2-PDC multi-cell spheroid viability
Experiment: Anticancer human tumor 186277-243-T-J2-PDC cell line growth inhibition [PI3K];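 note: spheroids exposed to compounds for seven days before viability reading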;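 for viability, T/C: 100% = DMSO vehicle control viability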
Details: second compound 0.01 µM; first compound 0.316 µM; stronger effect = lower value
Give bare numbers, in %.

In the examples that follow, each entry is paired with its recorded viability, T/C.
>>> readout_number("CNC(=O)c1ccc(N2C(=S)N(c3ccc(C#N)c(C(F)(F)F)c3)C(=O)C2(C)C)cc1F + CC(Nc1ccc2c(c1)OCCn1cc(N3C(=O)OCC3C(F)F)nc1-2)C(N)=O")
99.3
>>> readout_number("C[C@@H](NC(=O)c1ncnc(N)c1Cl)c1ncc(C(=O)Nc2cc(C(F)(F)F)c(Cl)cn2)s1 + CC(Nc1ccc2c(c1)OCCn1cc(N3C(=O)OCC3C(F)F)nc1-2)C(N)=O")
96.2
>>> readout_number("C#Cc1c(F)ccc2cc(O)cc(-c3ncc4c(N5CC6CCC(C5)N6)nc(OCC56CCCN5CC(F)C6)nc4c3F)c12 (stereo not given) + COc1c(OCCCN2CCOCC2)ccc2c3n(c(=NC(=O)c4cnc(N)nc4)nc12)CCN3")
13.7
>>> readout_number("CC(Cn1ccc(-c2ccc(C#N)c(Cl)c2)n1)NC(=O)c1cc(C(C)O)[nH]n1 (stereo not given) + CC(Nc1ccc2c(c1)OCCn1cc(N3C(=O)OCC3C(F)F)nc1-2)C(N)=O")
95.6

// next entry
The compound CCCS(=O)(=O)Nc1ccc(F)c(C(=O)c2c[nH]c3ncc(-c4ccc(Cl)cc4)cc23)c1F + COc1c(OCCCN2CCOCC2)ccc2c3n(c(=NC(=O)c4cnc(N)nc4)nc12)CCN3 showed viability, T/C equal to 110

* * *

Provide the recorded pIC50 for the entries that follow.
Test system: 186277-243-T-J2-PDC multi-cell spheroid viability
Assay: Anticancer human tumor 186277-243-T-J2-PDC cell line growth inhibition [PI3K];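 note: spheroids exposed to compounds for seven days before viability reading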
Conditions: curve of first compound; second compound 0.01 µM
pIC50: −log10 of the molar value.

Take each entry in turn and give its pIC50.
1. Cn1nccc1Nc1nccc(-c2ccn(C(CO)c3ccc(Cl)c(F)c3)c(=O)c2)n1 (stereo not drawn) + CC(Nc1ccc2c(c1)OCCn1cc(N3C(=O)OCC3C(F)F)nc1-2)C(N)=O
2. CC(=O)c1c(C)c2cnc(Nc3ccc(N4CCNCC4)cn3)nc2n(C2CCCC2)c1=O + COc1c(OCCCN2CCOCC2)ccc2c3n(c(=NC(=O)c4cnc(N)nc4)nc12)CCN3
3. CCN1CCN(Cc2ccc(Nc3ncc(F)c(-c4cc(F)c5nc(C)n(C(C)C)c5c4)n3)nc2)CC1 + COc1c(OCCCN2CCOCC2)ccc2c3n(c(=NC(=O)c4cnc(N)nc4)nc12)CCN3

Ans.
[5.75, "< 7.00", "< 6.00"]

* * *

System: 186277-243-T-J2-PDC multi-cell spheroid viability
Test: Anticancer human tumor 186277-243-T-J2-PDC cell line growth inhibition [PI3K];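 note: spheroids exposed to compounds for seven days before viability reading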;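 for viability, T/C: 100% = DMSO vehicle control viability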
Conditions: second compound 10 µM; first compound 3.16 µM; stronger effect = lower value
Observed property: viability, T/C

>>> result("CNC(=O)c1ccc(N2C(=S)N(c3ccc(C#N)c(C(F)(F)F)c3)C(=O)C2(C)C)cc1F + Cc1nc(NC(=O)N2CCCC2C(N)=O)sc1-c1ccnc(C(C)(C)C(F)(F)F)c1")
"15.5%"
>>> result("C#Cc1c(F)ccc2cc(O)cc(-c3ncc4c(N5CC6CCC(C5)N6)nc(OCC56CCCN5CC(F)C6)nc4c3F)c12 (stereo not given) + CC(Nc1ncnc2nc[nH]c12)c1cc2cccc(Cl)c2c(=O)n1-c1ccccc1")
"4.26%"
>>> result("CNC(=O)c1ccc(N2C(=S)N(c3ccc(C#N)c(C(F)(F)F)c3)C(=O)C2(C)C)cc1F + CC(Nc1ncnc2nc[nH]c12)c1cc2cccc(Cl)c2c(=O)n1-c1ccccc1")
"92.1%"
>>> result("Cn1nccc1Nc1nccc(-c2ccn(C(CO)c3ccc(Cl)c(F)c3)c(=O)c2)n1 (stereo not given) + CC(Nc1ncnc2nc[nH]c12)c1cc2cccc(Cl)c2c(=O)n1-c1ccccc1")
"24.5%"

// next entry
The compound C[C@@H](NC(=O)c1ncnc(N)c1Cl)c1ncc(C(=O)Nc2cc(C(F)(F)F)c(Cl)cn2)s1 + CC(Nc1ncnc2nc[nH]c12)c1cc2cccc(Cl)c2c(=O)n1-c1ccccc1 showed viability, T/C equal to 72.8%
